# assay_info: growth inhibition of C. albicans alone, dose response, counter-screen for antifungal drug resistance project, CaCi-2, no fluconazole, powder samples, set 9 (AID 504499)
# run_conditions: C. albicans CaCi-2 (fluconazole-resistant clinical isolate) growth without fluconazole, Alamar Blue, 48 h; at 26 µM (top of the series)

# chem_smiles, endpoint_unit, growth change, negative = inhibition
data = [
    ("COC(=O)n1nc(-c2ccccc2)c2ccccc21", "%", -9.34),
    ("O=C(Cn1c2ccccc2c2nc3n(c(=O)c21)CCS3)N1CCCCC1", "%", -17.6),
    ("COC(=O)Cn1nc(-c2cccc(C)c2)c2ccccc21", "%", -23.2),
    ("CCc1nn(CC(=O)OC)c2ccccc12", "%", -15.4),
    ("COC(=O)Cn1nc(-c2cnco2)c2ccccc21", "%", 22),
    ("O=C(O)Cn1c2ccc(F)cc2c2nc3n(c(=O)c21)CCS3", "%", -15.5),
    ("COC(=O)Cn1nc(C2CC2)c2ccccc21", "%", 4),
    ("COC(=O)Cn1nc(-c2ccccc2)c2cccnc21", "%", -7.57),
    ("CC1CCN(CCn2c3ccccc3c3nc4n(c(=O)c32)CCS4)CC1", "%", 2.22),
    ("CC1(O)CN(C(=O)Cn2c3ccccc3c3nc4n(c(=O)c32)CCS4)C1", "%", 5.26),
    ("c1ccc(-c2nn(Cc3nnco3)c3ccccc23)cc1", "%", 18.3),
    ("O=C(Cn1c2ccc(F)cc2c2nc3n(c(=O)c21)CCS3)N1CC=CC1", "%", 2.91),
    ("O=C(Cn1c2ccccc2c2nc3n(c(=O)c21)CCS3)N1CC=CC1", "%", 6.32),
    ("COC(=O)Cn1nc(-c2cccnc2)c2ccccc21", "%", 1.88),
    ("COC(=O)Cn1nc(C2CCCCC2)c2ccccc21", "%", -13.2),
    ("O=C(Cn1c2ccc(F)cc2c2nc3n(c(=O)c21)CCS3)N1CCC(F)(F)C1", "%", -1.64),
    ("O=C(Cn1c2ccccc2c2nc3n(c(=O)c21)CCS3)N1CCCC1", "%", -33.3),
    ("CN1CCN(C(=O)Cn2c3ccccc3c3nc4n(c(=O)c32)CCS4)CC1", "%", 2.02),
    ("COC(=O)Cn1nc(-c2cccc(F)c2)c2ccccc21", "%", -24.6),
    ("COC(=O)Cn1nc(C(C)(C)C)c2ccccc21", "%", 6.09),
    ("O=C(Cn1c2ccccc2c2nc3n(c(=O)c21)CCS3)N1CCC(F)(F)C1", "%", 5.06),
    ("COC(=O)Cn1nc(-c2cccc(OC)c2)c2ccccc21", "%", -28.4),
    ("O=C(Cn1c2ccc(F)cc2c2nc3n(c(=O)c21)CCS3)N1CCC(F)(F)CC1", "%", -9.87),
    ("O=C(O)Cn1c2ccccc2c2nc3n(c(=O)c21)CCS3", "%", 31.2),
    ("COC(=O)Cn1nc(-c2cscn2)c2ccccc21", "%", -11.4),
    ("O=C(Cn1c2ccccc2c2nc3n(c(=O)c21)CCS3)N1CCC(F)(F)CC1", "%", 5.44),
]
